tested on: large crabgrass (Digitaria sanguinalis); assay: Test A pre-/postemergence plant response; format: in vivo; details: Postemergence, 500 g ai/ha; visual injury, 0 to 100 scale (0 no effect, 100 complete control), approx. ten days
Each entry below carries its recorded Crabgrass, Large plant response rating.

// solved cases for Crabgrass, Large plant response rating follow
Crabgrass, Large plant response rating reading for `COc1ccc(-n2c(-c3cccc(Br)c3)ncc(C(=O)C3=C(O)CCCC3=O)c2=O)cc1` : 60

Crabgrass, Large plant response rating reading for O=C1CCCC(O)=C1C(=O)c1cnc(-c2ccccc2)n(C2CC[S+]([O-])CC2)c1=O (mixture of isomers) : 100

Crabgrass, Large plant response rating reading for COCCCn1c(-c2cc(F)cc(F)c2)ncc(C(=O)C2=C(O)C3CCC(C3)C2=O)c1=O (stereo not shown) : 90

Moving on to the next compound.
Crabgrass, Large plant response rating reading for `O=C1CCCC(O)=C1C(=O)c1cnc(-c2ccsc2)n(C2CCOCC2)c1=O` : 90

###

test system: morningglory (Ipomoea coccinea); test: Test B pre-/postemergence plant response; type: in vivo; details: Preemergence, 62 g ai/ha; scale 0 to 100, 0 no effect, 100 complete control
property_label: Plant response rating, Morningglory
When you answer, write just the number.

// solved cases for Plant response rating, Morningglory follow
Plant response rating, Morningglory reading for O=C1CCCC(O)=C1C(=O)c1cnc(-c2cccc(Br)c2)n(-c2ccccc2)c1=O [Compound 69] : 0

Plant response rating, Morningglory reading for Cc1cccc(-n2c(-c3ccccc3)ncc(C(=O)C3=C(O)CCCC3=O)c2=O)c1F [Compound 58] : 0

Plant response rating, Morningglory reading for CCCCn1c(C2CC2)ncc(C(=O)C2=C(O)CCCC2=O)c1=O [Compound 193] : 90

Moving on to the next molecule.
Plant response rating, Morningglory reading for Cc1ccc(C)c(-n2c(-c3ccccc3)ncc(C(=O)C3=C(O)CCCC3=O)c2=O)c1 [Compound 29] : 100

###

test system: morningglory (Ipomoea coccinea); experiment: Test B pre-/postemergence plant response; assay type: in vivo; conditions: 31 g ai/ha, postemergence; scale 0 to 100, 0 is no effect, 100 is complete control
property_label: Plant response rating, Morningglory
When you answer, write just the number.

// solved cases for Plant response rating, Morningglory follow
So the reported Plant response rating, Morningglory for `CCn1c(-c2ccccc2)ncc(C(=O)C2=C(O)CCCC2=O)c1=O` , on morningglory (Ipomoea coccinea), turned out to be 65

So the reported Plant response rating, Morningglory for O=C1CCCC(O)=C1C(=O)c1cnc(-c2cccs2)n(CC2CCCO2)c1=O (centres unmarked) , on morningglory (Ipomoea coccinea), turned out to be 70

So the reported Plant response rating, Morningglory for `CCCCn1c(CCC)ncc(C(=O)C2=C(O)CCCC2=O)c1=O` , on morningglory (Ipomoea coccinea), turned out to be 20

So the reported Plant response rating, Morningglory for `Cc1ccc(Cl)cc1-n1c(-c2ccccc2)ncc(C(=O)C2=C(O)CCCC2=O)c1=O` , on morningglory (Ipomoea coccinea), turned out to be 10

New cases:
So the reported Plant response rating, Morningglory for `O=C1CCCC(O)=C1C(=O)c1cnc(C2CC2)n(-c2ccccc2)c1=O` , on morningglory (Ipomoea coccinea), turned out to be 45

So the reported Plant response rating, Morningglory for `CCCn1c(-c2ccccc2)ncc(C(=O)C2=C(O)CCCC2=O)c1=O` , on morningglory (Ipomoea coccinea), turned out to be 10

So the reported Plant response rating, Morningglory for `O=C1CCCC(O)=C1C(=O)c1cnc(-c2cccc(Br)c2)n(-c2ccccc2)c1=O` , on morningglory (Ipomoea coccinea), turned out to be 70

So the reported Plant response rating, Morningglory for `CCCn1c(-c2ccsc2)ncc(C(=O)C2=C(O)CCCC2=O)c1=O` , on morningglory (Ipomoea coccinea), turned out to be 70
